- assay target: JAK3 (Homo sapiens, UniProt P52333)
- Construct: All four purified enzymes contain only the catalytic domain; His (N)
- Sequence (P52333 822-1111 limits assumed): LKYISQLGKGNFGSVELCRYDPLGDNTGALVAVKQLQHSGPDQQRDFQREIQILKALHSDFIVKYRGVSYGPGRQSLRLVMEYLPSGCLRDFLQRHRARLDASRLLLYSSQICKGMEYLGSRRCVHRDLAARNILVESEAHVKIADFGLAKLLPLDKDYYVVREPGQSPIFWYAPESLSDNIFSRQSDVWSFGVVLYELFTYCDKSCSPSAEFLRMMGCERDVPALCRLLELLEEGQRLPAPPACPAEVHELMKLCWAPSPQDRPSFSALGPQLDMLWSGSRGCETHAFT
- test description: JAK3 kinase assay (HTRF, inhibition of phosphorylation of a synthetic peptide)
- measurement setup: catalytic domain, His-tag; 2 μM ATP (Km); read-out: JAK3 kinase inhibitory activity (EC50)
pEC50: −log10 of the molar value.
measured parameter: pEC50

In plain terms, `O=C(c1c[nH]nn1)N1CCN(c2ncnc3[nH]ccc23)CC2(CC2)C1` has a documented pEC50 of 6.00 to 7.00

In plain terms, `Cc1nnc(C(=O)N2CCN(c3ncnc4[nH]ccc34)CC3(CC3)C2)o1` has a documented pEC50 of < 6.00

In plain terms, CC1CN(c2ncnc3[nH]ccc23)CC2(CC2)CN1C(=O)c1ccccc1 (stereo not shown) has a documented pEC50 of < 6.00

In plain terms, `Cc1ncoc1C(=O)N1CCN(c2ncnc3[nH]ccc23)CC2(CC2)C1` has a documented pEC50 of < 6.00

In plain terms, `CS(=O)(=O)c1ccc(CC(=O)N2CCN(c3ncnc4[nH]ccc34)CC3(CC3)C2)cc1` has a documented pEC50 of 6.00 to 7.00

---

- assay target: JAK3 (Homo sapiens, UniProt P52333)
- Construct: All four purified enzymes contain only the catalytic domain; His (N)
- test description: JAK3 kinase assay (HTRF, inhibition of phosphorylation of a synthetic peptide)
- measurement setup: catalytic domain, His-tag; 2 μM ATP (Km); read-out: JAK3 kinase inhibitory activity (EC50)
- Experimental: JAK1, JAK2, JAK3 and TYK2 Kinase Assays: Human baculovirus-expressed JAK1, 2, 3 and TYK2 were purchased from Carna Biosciences, Inc. All four purified enzymes contain only the catalytic domain. […] Inhibition of phosphorylation of a synthetic peptide was measured in an HTRF-based assay using the TK substrate-Biotin from the CisbioHTRFKinEASE TK kit. […] The HTRF signal is read using an Envision plate reader.
pEC50: −log10 of the molar value.
measured parameter: pEC50

In [3]: df
Out[3]:
                            chemical_smiles  measured_result
0  NS(=O)(=O)c1ccc(/C=C/C(=O)N2CCN(c3ncnc4[nH]ccc34)CC3(CC3)C2)cc1     6.00 to 7.00
1  Cc1n[nH]c(CC(=O)N2CCN(c3ncnc4[nH]ccc34)CC3(CC3)C2)n1     6.00 to 7.00
2  O=C(c1ccncn1)N1CCCN(c2ncnc3[nH]ccc23)CC12CC2     6.00 to 7.00
3  O=C(Cc1ccc2ccccc2c1)N1CCN(c2ncnc3[nH]ccc23)CC2(CC2)C1     6.00 to 7.00

In plain terms, `O=C(c1ccc(O)nc1)N1CCN(c2ncnc3[nH]ccc23)CC2(CC2)C1` has a documented pEC50 of 6.00 to 7.00

In plain terms, `N#CCOc1cccc(C(=O)N2CCN(c3ncnc4[nH]ccc34)CC3(CC3)C2)c1` has a documented pEC50 of < 6.00

In plain terms, `N#CCCC(=O)N1CCCN(c2ncnc3[nH]ccc23)CC12CC2` has a documented pEC50 of 6.00 to 7.00

In plain terms, `O=C(Cc1ccccn1)N1CCN(c2ncnc3[nH]ccc23)CC2(CC2)C1` has a documented pEC50 of < 6.00

In plain terms, `N#Cc1cccc(OCC(=O)N2CCN(c3ncnc4[nH]ccc34)CC3(CC3)C2)c1` has a documented pEC50 of 6.00 to 7.00

In plain terms, `O=C(CN1C(=O)CSC1=O)N1CCN(c2ncnc3[nH]ccc23)CC2(CC2)C1` has a documented pEC50 of > 7.00

In plain terms, `Cc1ncccc1C(=O)N1CCN(c2ncnc3[nH]ccc23)CC2(CC2)C1` has a documented pEC50 of < 6.00
